# assay-target: Fatty acid synthase (Homo sapiens, UniProt P49327)
# Sequence (P49327 whole entry, the tested form may be a part): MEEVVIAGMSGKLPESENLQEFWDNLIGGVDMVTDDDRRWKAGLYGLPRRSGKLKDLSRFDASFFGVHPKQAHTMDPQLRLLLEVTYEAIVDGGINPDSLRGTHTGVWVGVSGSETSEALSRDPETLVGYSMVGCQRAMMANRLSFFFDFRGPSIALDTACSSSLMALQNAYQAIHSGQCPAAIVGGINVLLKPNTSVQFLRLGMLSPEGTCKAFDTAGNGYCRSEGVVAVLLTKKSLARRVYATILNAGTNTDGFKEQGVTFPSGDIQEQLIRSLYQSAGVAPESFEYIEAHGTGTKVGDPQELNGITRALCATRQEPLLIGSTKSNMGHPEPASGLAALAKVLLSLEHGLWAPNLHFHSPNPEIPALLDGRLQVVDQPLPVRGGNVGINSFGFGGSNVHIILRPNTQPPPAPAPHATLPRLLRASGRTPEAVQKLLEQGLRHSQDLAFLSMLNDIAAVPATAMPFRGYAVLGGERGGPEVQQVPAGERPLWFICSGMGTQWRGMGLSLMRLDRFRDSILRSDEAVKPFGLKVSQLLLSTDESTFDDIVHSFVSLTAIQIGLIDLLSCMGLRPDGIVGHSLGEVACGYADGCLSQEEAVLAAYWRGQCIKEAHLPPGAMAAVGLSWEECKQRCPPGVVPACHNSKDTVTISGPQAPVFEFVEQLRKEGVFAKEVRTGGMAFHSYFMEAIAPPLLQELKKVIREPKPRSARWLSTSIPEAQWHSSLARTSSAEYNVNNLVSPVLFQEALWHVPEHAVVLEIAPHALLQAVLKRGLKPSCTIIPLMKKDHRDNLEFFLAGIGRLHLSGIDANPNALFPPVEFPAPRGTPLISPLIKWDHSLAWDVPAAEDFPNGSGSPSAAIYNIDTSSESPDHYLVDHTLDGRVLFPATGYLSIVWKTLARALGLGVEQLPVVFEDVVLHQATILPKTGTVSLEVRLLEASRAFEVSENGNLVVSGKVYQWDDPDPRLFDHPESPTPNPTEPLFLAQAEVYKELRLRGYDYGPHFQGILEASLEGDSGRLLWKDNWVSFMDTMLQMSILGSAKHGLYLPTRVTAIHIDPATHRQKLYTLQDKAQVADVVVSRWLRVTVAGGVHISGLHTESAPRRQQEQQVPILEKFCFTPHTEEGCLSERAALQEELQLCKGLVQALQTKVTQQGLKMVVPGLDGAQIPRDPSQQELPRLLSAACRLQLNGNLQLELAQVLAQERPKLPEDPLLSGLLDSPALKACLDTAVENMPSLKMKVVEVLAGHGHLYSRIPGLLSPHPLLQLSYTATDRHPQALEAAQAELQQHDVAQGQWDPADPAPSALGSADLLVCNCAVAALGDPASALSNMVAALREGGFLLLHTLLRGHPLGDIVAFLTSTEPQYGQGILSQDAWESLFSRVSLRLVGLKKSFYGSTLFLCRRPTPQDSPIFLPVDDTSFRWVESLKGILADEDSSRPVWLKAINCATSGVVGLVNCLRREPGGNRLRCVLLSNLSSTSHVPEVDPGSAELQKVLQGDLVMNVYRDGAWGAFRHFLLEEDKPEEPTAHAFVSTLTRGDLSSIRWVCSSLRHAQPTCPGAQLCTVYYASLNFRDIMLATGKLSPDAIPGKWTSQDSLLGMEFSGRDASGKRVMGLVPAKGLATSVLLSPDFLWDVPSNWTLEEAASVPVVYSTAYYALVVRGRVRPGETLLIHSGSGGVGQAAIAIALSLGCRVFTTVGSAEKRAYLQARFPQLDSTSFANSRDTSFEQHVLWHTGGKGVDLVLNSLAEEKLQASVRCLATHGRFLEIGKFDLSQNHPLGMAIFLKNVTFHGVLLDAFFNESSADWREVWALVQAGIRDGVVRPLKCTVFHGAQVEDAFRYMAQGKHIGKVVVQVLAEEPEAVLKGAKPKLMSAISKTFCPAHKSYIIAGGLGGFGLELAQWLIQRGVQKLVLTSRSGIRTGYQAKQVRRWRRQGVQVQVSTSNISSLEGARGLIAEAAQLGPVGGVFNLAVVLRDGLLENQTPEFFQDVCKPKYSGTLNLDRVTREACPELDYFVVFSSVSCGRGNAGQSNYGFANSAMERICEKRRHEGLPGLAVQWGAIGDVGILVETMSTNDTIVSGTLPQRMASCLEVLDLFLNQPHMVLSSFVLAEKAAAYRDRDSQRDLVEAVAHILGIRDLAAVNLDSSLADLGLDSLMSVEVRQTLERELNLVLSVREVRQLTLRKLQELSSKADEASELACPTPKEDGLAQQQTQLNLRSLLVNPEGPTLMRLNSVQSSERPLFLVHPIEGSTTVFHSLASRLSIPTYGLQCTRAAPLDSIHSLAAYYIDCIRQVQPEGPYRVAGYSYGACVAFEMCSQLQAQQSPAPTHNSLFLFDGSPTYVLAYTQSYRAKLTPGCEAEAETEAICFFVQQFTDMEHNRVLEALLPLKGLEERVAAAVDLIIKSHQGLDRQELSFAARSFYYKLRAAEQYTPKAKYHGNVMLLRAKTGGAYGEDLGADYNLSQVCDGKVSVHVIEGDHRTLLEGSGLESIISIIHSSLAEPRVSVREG
# protocol-notes: FAS thioesterase domain inhibitors, dose response, biochemical, kinetic fluorescence intensity (AID 624326);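 note: rate of fluorescence rise from hydrolysis of a fluorogenic O-methyl fluorescein ester substrate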
# Type: functional
The source made the active and inactive calls. Cut-off read from the data, not from the text of the source: active = IC50 of 20 µM or less and inactive = more.
A collection of compounds and their measured IC50

{"structure-as-smiles": "COc1ccc([N+](=O)[O-])cc1NC(=O)CCCOc1ccccc1", "IC50": "8.62 µM (active)"}
{"structure-as-smiles": "O=S(=O)(Nc1ccc(-c2csc(-c3ccccc3)n2)cc1)c1ccccc1", "IC50": "8.85 µM (active)"}
{"structure-as-smiles": "Cc1ccc(C(=O)N/C(=C\\c2cccc([N+](=O)[O-])c2)C(=O)Nc2cccc(C(=O)O)c2)cc1", "IC50": "8.2 µM (active)"}
{"structure-as-smiles": "COc1ccc(NC(=O)c2[nH]cnc2C(=O)N[C@H](C)c2ccccc2)cc1", "IC50": "11.5 µM (active)"}
{"structure-as-smiles": "COc1ccc(NC(=O)Nc2cccc3c2O[C@H](CN(C)C(=O)NC2CCCCC2)[C@@H](C)CN([C@H](C)CO)C3=O)cc1", "IC50": "3.35 µM (active)"}
{"structure-as-smiles": "CCOC(=O)N1CCN(Cc2nc3ccc([N+](=O)[O-])cc3c(=O)n2-c2cccc(OC)c2)CC1", "IC50": "3.04 µM (active)"}
{"structure-as-smiles": "COC(=O)c1ccc(COc2cc([N+](=O)[O-])cc3cccnc23)o1", "IC50": "11.6 µM (active)"}
{"structure-as-smiles": "CCN(Cc1ccccc1)C(=O)COC(=O)c1cc(Cl)nc(Cl)c1", "IC50": "9.26 µM (active)"}
